- System: Klebsiella pneumoniae ATCC 10031
- experimentalProtocol: ≥ marks a high value that may be exact or a test limit, other limits are often not marked, values filed in µg/mL are converted to µM
Here, each record is paired with measured MIC data.
parameter: MIC

CC(C)C[C@H](NC(=O)[C@H](CC(C)C)NC(=O)[C@@H](N)Cc1c[nH]c2ccccc12)C(=O)N[C@@H](CCCCN)C(=O)N[C@@H](Cc1c[nH]c2ccccc12)C(N)=O	≥ 107 µM
CC[C@H](C)[C@H](NC(=O)[C@H](CCCCN)NC(=O)[C@H](C)NC(=O)[C@H](CCCN=C(N)N)NC(=O)[C@H](CC(C)C)NC(=O)[C@H](CCCN=C(N)N)NC(=O)[C@@H](NC(=O)[C@H](CCCCN)NC(=O)[C@@H](NC(=O)[C@H](CCCCN)NC(=O)[C@H](C)NC(=O)[C@H](CCCN=C(N)N)NC(=O)[C@H](CC(C)C)NC(=O)[C@H](CCCCN)NC(=O)[C@@H](N)Cc1ccccc1)[C@@H](C)CC)C(C)C)C(=O)N[C@@H](CCCCN)C(=O)N[C@@H](CC(C)C)C(N)=O	15.4 µM
CC(C)C[C@H](NC(=O)[C@H](Cc1c[nH]c2ccccc12)NC(=O)[C@H](CCCCN)NC(=O)[C@H](CC(C)C)NC(=O)[C@H](CC(C)C)NC(=O)[C@H](Cc1c[nH]c2ccccc12)NC(=O)[C@@H](N)CCCCN)C(N)=O	≥ 81.1 µM

---

Here, each record is paired with measured MIC data.
- Tested on: Pseudomonas aeruginosa KCTC 1637
- experimentalProtocol: ≥ marks a high value that may be exact or a test limit, other limits are often not marked, values filed in µg/mL are converted to µM
parameter: MIC (µM)

CC[C@H](C)[C@H](NC(=O)[C@H](CCCCN)NC(=O)[C@H](CCCCN)NC(=O)[C@H](Cc1ccccc1)NC(=O)[C@H](CC(C)C)NC(=O)[C@H](CCCCN)NC(=O)[C@H](CCCCN)NC(=O)[C@H](CC(C)C)NC(=O)[C@H](CCCN=C(N)N)NC(=O)[C@H](CCCCN)NC(=O)[C@@H](N)Cc1ccccc1)C(=O)N[C@@H](Cc1c[nH]c2ccccc12)C(=O)N[C@@H](CC(N)=O)C(=O)N[C@@H](Cc1c[nH]c2ccccc12)C(=O)N[C@@H](CCCCN)C(N)=O	2
NCCCC[C@H](NC(=O)[C@H](Cc1c[nH]c2ccccc12)NC(=O)[C@H](CCCCN)NC(=O)[C@H](Cc1c[nH]c2ccccc12)NC(=O)[C@H](CCCCN)NC(=O)[C@H](Cc1c[nH]c2ccccc12)NC(=O)[C@@H](N)CCCCN)C(=O)N[C@@H](Cc1c[nH]c2ccccc12)C(N)=O	3.12
CC[C@H](C)[C@H](NC(=O)[C@H](CC(C)C)NC(=O)[C@H](CCCCN)NC(=O)[C@@H](NC(=O)[C@@H](NC(=O)[C@H](CCCN=C(N)N)NC(=O)[C@@H](N)CC(C)C)[C@@H](C)CC)C(C)C)C(=O)N[C@@H](CC(C)C)C(=O)N[C@@H](CCCCN)C(=O)N[C@@H](Cc1c[nH]c2ccccc12)C(=O)N[C@@H](CC(C)C)C(=O)N[C@@H](CCCN=C(N)N)C(N)=O	16

---

Values of MIC reported for Klebsiella pneumoniae ATCC 10031 appear below.
parameter: MIC (µM)

CC(C)C[C@H](NC(=O)[C@H](CC(C)C)NC(=O)[C@H](CCCCN)NC(=O)[C@H](CCCCN)NC(=O)[C@H](CC(C)C)NC(=O)[C@H](Cc1c[nH]c2ccccc12)NC(=O)[C@H](CCCCN)NC(=O)[C@H](CC(C)C)NC(=O)[C@H](CC(C)C)NC(=O)[C@@H](N)CCCCN)C(=O)N[C@@H](CCCCN)C(N)=O	1.42
CC[C@H](C)[C@H](NC(=O)CN)C(=O)N[C@@H](CCCN=C(N)N)C(=O)N[C@@H](CCCN=C(N)N)C(=O)N[C@H](C(=O)N[C@@H](CC(C)C)C(=O)N[C@@H](CCCN=C(N)N)C(=O)N[C@@H](Cc1ccc(O)cc1)C(=O)NCC(=O)N[C@@H](CCCN=C(N)N)C(=O)N1CCC[C@H]1C(=O)N[C@@H](CO)C(N)=O)[C@@H](C)CC	10

---

- System: Pseudomonas aeruginosa KCTC 1637
- experimentalProtocol: ≥ marks a high value that may be exact or a test limit, other limits are often not marked, values filed in µg/mL are converted to µM
parameter: MIC

CC[C@H](C)[C@H](NC(=O)[C@H](CC(C)C)NC(=O)[C@H](CC(C)C)NC(=O)[C@@H](N)CC(C)C)C(=O)N[C@@H](C)C(=O)N[C@@H](CC(C)C)C(=O)N[C@@H](CCCN=C(N)N)C(=O)N[C@@H](CCCCN)C(=O)N[C@@H](CCCCN)C(N)=O [LLLIALRKK]	3.75 µM
CC[C@H](C)[C@H](NC(=O)[C@H](CCCCN)NC(=O)[C@H](CCCCN)NC(=O)[C@H](C)NC(=O)[C@H](CC(C)C)NC(=O)[C@H](CCCCN)NC(=O)[C@H](CCCCN)NC(=O)[C@H](CC(C)C)NC(=O)[C@H](CCCN=C(N)N)NC(=O)[C@H](CCCCN)NC(=O)[C@H](C)N)C(=O)N[C@@H](Cc1c[nH]c2ccccc12)C(=O)N[C@@H](CC(N)=O)C(=O)N[C@@H](Cc1c[nH]c2ccccc12)C(=O)N[C@@H](CCCCN)C(N)=O [AKRLKKLAKKIWNWK]	2 µM

---

- System: Candida albicans ATCC 2002
parameter: MIC (µM)

CC[C@H](C)[C@H](NC(=O)[C@H](CCCCN)NC(=O)[C@H](CCCCN)NC(=O)CNC(=O)[C@@H](NC(=O)CNC(=O)[C@H](CC(C)C)NC(=O)[C@@H](NC(=O)CNC(=O)[C@H](CO)NC(=O)[C@H](CC(C)C)NC(=O)[C@H](CC(C)C)NC(=O)CN)C(C)C)C(C)C)C(=O)N[C@H](C(=O)N[C@H]1CSSC[C@@H](C(=O)O)NC(=O)[C@H](CC(C)C)NC(=O)CNC(=O)[C@H](CO)NC(=O)[C@H](CC(C)C)NC(=O)CNC1=O)C(C)C [GLLSGVLGVGKKIVCGLSGLC]	2.63

---

Values of MIC reported for Candida albicans ATCC 2002 appear below.
parameter: MIC

CC[C@H](C)[C@H](NC(=O)CNC(=O)[C@H](CO)NC(=O)[C@H](CC(C)C)NC(=O)[C@@H](NC(=O)CN)[C@@H](C)CC)C(=O)N[C@@H](CC(C)C)C(=O)NCC(=O)N[C@H](C(=O)NCC(=O)N[C@@H](CCCCN)C(=O)N[C@@H](CCSC)C(=O)N[C@@H](CC(C)C)C(=O)N[C@H](C(=O)N[C@H]1CSSC[C@@H](C(=O)O)NC(=O)[C@H](CC(C)C)NC(=O)CNC(=O)[C@H](CO)NC(=O)[C@H](CC(C)C)NC(=O)CNC1=O)C(C)C)C(C)C [GILSGILGVGKMLVCGLSGLC]	4.32 µM
CC[C@H](C)[C@H](NC(=O)[C@@H]1CCCN1C(=O)[C@H](Cc1ccccc1)NC(=O)[C@@H](N)Cc1ccccc1)C(=O)N[C@H](C(=O)NCC(=O)N[C@@H](CCCCN)C(=O)N[C@@H](CC(C)C)C(=O)N[C@@H](CC(C)C)C(=O)N[C@@H](CO)C(N)=O)C(C)C [FFPIVGKLLS]	13.4 µM
CC[C@H](C)[C@H](NC(=O)CN)C(=O)N[C@@H](CC(C)C)C(=O)NCC(=O)N[C@@H](CC(N)=O)C(=O)N[C@H](C(=O)N[C@H](C(=O)NCC(=O)N[C@@H](CCSC)C(=O)NCC(=O)N[C@@H](CCCCN)C(=O)N[C@@H](CCCCN)C(=O)N[C@H](C(=O)N[C@H](C(=O)N[C@H]1CSSC[C@@H](C(=O)O)NC(=O)[C@H](CC(C)C)NC(=O)CNC(=O)[C@H](CO)NC(=O)[C@H](CC(C)C)NC(=O)CNC1=O)C(C)C)[C@@H](C)CC)C(C)C)[C@@H](C)CC [GILGNIVGMGKKIVCGLSGLC]	1.53 µM
CC[C@H](C)[C@H](NC(=O)CN)C(=O)N[C@@H](CC(C)C)C(=O)N[C@@H](CC(=O)O)C(=O)N[C@@H](C)C(=O)N[C@H](C(=O)N[C@@H](CCCCN)C(=O)N[C@@H](C)C(=O)N[C@@H](Cc1ccccc1)C(=O)N[C@@H](C)C(=O)N[C@@H](CC(N)=O)C(=O)N[C@@H](C)C(=O)N[C@@H](CC(C)C)C(=O)NCC(N)=O)[C@@H](C)CC [GILDAIKAFANALG]	≥ 48 µM
CC[C@H](C)[C@H](NC(=O)[C@@H]1CCCN1C(=O)[C@H](Cc1ccccc1)NC(=O)[C@@H](N)Cc1ccccc1)C(=O)N[C@H](C(=O)NCC(=O)N[C@@H](CCCCN)C(=O)N[C@@H](CC(C)C)C(=O)N[C@@H](CC(C)C)C(=O)N[C@@H](CO)C(=O)NCC(=O)N[C@@H](CC(C)C)C(=O)N[C@@H](CO)C(=O)NCC(=O)N[C@@H](CC(C)C)C(=O)N[C@@H](CC(C)C)C(N)=O)C(C)C [FFPIVGKLLSGLSGLL]	1.51 µM
CC[C@H](C)[C@H](NC(=O)[C@H](C)NC(=O)[C@H](CCCCN)NC(=O)[C@H](CC(C)C)NC(=O)[C@@H](N)CC(N)=O)C(=O)N[C@@H](C)C(=O)N[C@@H](C)C(=O)N[C@@H](CC(C)C)C(=O)N[C@@H](C)C(=O)N[C@@H](CCCCN)C(=O)N[C@@H](CCCCN)C(=O)N[C@@H](CC(C)C)C(=O)N[C@@H](CC(C)C)C(=O)O [NLKAIAALAKKLL]	7.32 µM
CC[C@H](C)[C@H](NC(=O)CNC(=O)[C@H](CO)NC(=O)[C@H](CC(C)C)NC(=O)[C@H](CC(C)C)NC(=O)CN)C(=O)N[C@@H](CC(C)C)C(=O)NCC(=O)N[C@@H](C)C(=O)NCC(=O)N[C@@H](CCCCN)C(=O)N[C@@H](Cc1cnc[nH]1)C(=O)N[C@H](C(=O)N[C@H](C(=O)N[C@H]1CSSC[C@@H](C(=O)N[C@@H](C)C(=O)N[C@@H](CCCCN)C(=O)N[C@@H](C)C(=O)O)NC(=O)CNC(=O)[C@H]([C@@H](C)O)NC(=O)[C@H](CC(C)C)NC(=O)CNC1=O)C(C)C)[C@@H](C)CC [GLLSGILGAGKHIVCGLTGCAKA]	8.76 µM
CC[C@H](C)[C@H](NC(=O)[C@H](CC(C)C)NC(=O)[C@@H](NC(=O)[C@H](Cc1ccccc1)NC(=O)[C@H](CC(C)C)NC(=O)CN)[C@@H](C)O)C(=O)N[C@@H](CCCCN)C(=O)NCC(=O)N[C@@H](C)C(=O)N[C@@H](Cc1ccc(O)cc1)C(=O)N[C@@H](CCCCN)C(=O)N[C@@H](CC(N)=O)C(=O)N[C@@H](CC(=O)O)C(=O)N[C@@H](C)C(=O)N1CCC[C@H]1C(=O)N[C@H](C(=O)N[C@H](C(=O)N[C@@H](C)C(=O)N[C@@H](CS)C(=O)N[C@@H](CC(N)=O)C(=O)O)C(C)C)[C@@H](C)O [GLFTLIKGAYKNDAPTVACN]	11.6 µM
CC(C)[C@H](N)C(=O)N[C@H](C(=O)N[C@@H](CCCCN)C(=O)N[C@@H](CS)C(=O)N[C@@H](CO)C(=O)N[C@@H](Cc1ccc(O)cc1)C(=O)N[C@@H](CCCN=C(N)N)C(=O)N[C@@H](CCC(N)=O)C(=O)NCC(=O)N[C@@H](CO)C(=O)N1CCC[C@H]1C(=O)N[C@@H](CC(=O)O)C(=O)N[C@@H](CO)C(=O)N[C@@H](CCCN=C(N)N)C(=O)O)C(C)C [VVKCSYRQGSPDSR]	≥ 126 µM
CC(C)C[C@H](NC(=O)[C@H](CCC(N)=O)NC(=O)[C@H](CCCCN)NC(=O)[C@H](Cc1ccc(O)cc1)NC(=O)[C@@H]1CCCN1C(=O)[C@H](CCC(N)=O)NC(=O)[C@H](C)NC(=O)[C@H](CO)NC(=O)CN)C(=O)N[C@@H](Cc1cnc[nH]1)C(=O)N[C@@H](CCCCN)C(=O)N[C@H](C(=O)N[C@H](C(=O)N[C@@H](CC(N)=O)C(=O)N[C@@H](Cc1c[nH]c2ccccc12)C(=O)N[C@@H](CC(=O)O)C(=O)N1CCC[C@H]1C(=O)N[C@@H](Cc1ccc(O)cc1)C(=O)NCC(=O)O)C(C)C)C(C)C [GSAQPYKQLHKVVNWDPYG]	13.7 µM
